- targetEntity: T1, GFP-9S library array, motif 4 ND N98K;D124R (synthetic construct, N98K;D124R)
- T1 chain: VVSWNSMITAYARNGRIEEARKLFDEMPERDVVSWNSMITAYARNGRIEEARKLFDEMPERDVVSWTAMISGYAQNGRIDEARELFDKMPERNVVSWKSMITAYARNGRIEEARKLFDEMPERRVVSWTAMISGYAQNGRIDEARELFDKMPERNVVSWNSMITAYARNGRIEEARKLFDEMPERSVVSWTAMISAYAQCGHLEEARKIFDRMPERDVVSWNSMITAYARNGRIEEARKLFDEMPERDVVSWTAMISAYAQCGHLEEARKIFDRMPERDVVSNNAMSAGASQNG
- assayName: high-throughput RNA pulldown from lysate on Ni-NTA beads; HRP: 50 mM Tris pH 8, 150 mM NaCl, 1 mM beta-mercaptoethanol, 50 ug/ml BSA, 3 ug/ml yeast RNA, 0.5% heparin; ITC and FP: Tris pH 8, 200 mM KCl, 5% glycerol; MST: 50 mM Tris pH 8, 200 mM NaCl, 1 mM DTT, BSA, heparin, 0.05% Tween 20
- experimentalConditions: tags: N-terminal His-eGFP; label: 5' IRDye 800CW
Field: Kd. Provide a value for each of the binders that follow.
Could you kindly put the unit after your number?

Inquiry: I'd like to know its Kd. The binder in question is AUUAUACGUGA (ssRNA) [IR-rpoA-U]
Reply text: 66.9 nM

Inquiry: I'd like to know its Kd. The binder in question is AUUAAACGUGA (ssRNA) [IR-rpoA-A]
Reply text: 139 nM

Source: paper PMC8809517
